# credit: patent EP0742015A1

experiment: Stability of ADR-ceph in buffer at pH 7.4 at 37°C, HPLC; type: physicochemical; settings: buffer at pH 7.4, 37°C
Readout Label: half-life (h)
Answers are plain numbers, in h.

Reported half-life of COc1cccc2c1C(=O)c1c(O)c3c(c(O)c1C2=O)C[C@@](O)(C(=O)CO)C[C@@H]3O[C@H]1C[C@H](NC(=O)OCC2=C(C(=O)O)N3C(=O)C(NC(=O)Cc4ccccc4)C3SC2)[C@H](O)[C@H](C)O1 (stereo partly shown) : 20

----------
assay: Stability of ADR-ceph in rat plasma at 37°C, HPLC; format: in vitro ADME
Readout Label: half-life
Hi, when you answer, please include the unit after the number. Thanks!

half-life in this record for COc1cccc2c1C(=O)c1c(O)c3c(c(O)c1C2=O)C[C@@](O)(C(=O)CO)C[C@@H]3O[C@H]1C[C@H](NC(=O)OCC2=C(C(=O)O)N3C(=O)C(NC(=O)Cc4ccccc4)C3SC2)[C@H](O)[C@H](C)O1 (stereo partly shown) : 8 h

----------
test: physchem; conditions: imdm cell growth medium
Readout Label: half-life at 500 µM (min)
Answers are plain numbers, in min.

Form field half-life at 500 µM, entry O=C(Cc1ccccc1)NC1C(=O)N2C(C(=O)O)=C(COC(=O)Nc3ccc(N(CCCl)CCCl)cc3)CSC12 (stereo not shown) : 30

----------
test: in vitro; conditions: mouse, plasma
Readout Label: metabolised at 2.5 h, 500 µM
Please answer using a numeric value trailed by its unit.

// sample O=C(Cc1ccccc1)NC1C(=O)N2C(C(=O)O)=C(COC(=O)Nc3ccc(N(CCCl)CCCl)cc3)CSC12 (stereo not shown) [CM] , its metabolised at 2.5 h, 500 µM was 12%
